- Assay name: modulators of glucocorticoid suppression of NF-kB, cell-based, luciferase, IL-1B stimulus, dexamethasone (AID 624486)
- Stated conditions: NF-kB luciferase reporter, IL-1B + dexamethasone, luminescence; measured here: IL-1B alone, no Dex
Experimental endpoint: z-score

What value of measured z-score is listed for NS(=O)(=O)c1ccc(N=Nc2c(O)[nH]c3cccc(CCc4ccncc4)c23)cc1 ?
-0.56

What value of measured z-score is listed for CC(c1ccccc1)C(C(=O)Nc1ccc(I)cc1F)N1C(=O)NC(c2ccc(OCC(O)CO)cc2)C1=O (stereo not given) ?
-3.5

What value of measured z-score is listed for O=C1OC(=O)C(c2c[nH]c3ccccc23)=C1c1c[nH]c2ccccc12 ?
1

What value of measured z-score is listed for O=c1c(Oc2ccc(F)cc2F)cc2cnc(NC3CCOCC3)nc2n1C1CC1 ?
-0.435

What value of measured z-score is listed for COc1cc(/C=N/Nc2ncnc3c2cnn3Cc2ccccc2)ccc1O ?
-0.18

What value of measured z-score is listed for CCn1c(-c2nonc2N)nc2c(C#CC(C)(C)O)nc(CN3CCCC3)cc21 ?
-0.04

What value of measured z-score is listed for Nc1ncnc2occ(-c3ccc(NC(=O)Nc4cccc(C(F)(F)F)c4)cc3)c12 ?
-3

What value of measured z-score is listed for CC(C)c1ccc(Nc2nccc(-c3cnn4ncccc34)n2)cc1 ?
-8.57

What value of measured z-score is listed for Fc1ccc(-c2ncn(C3CCNCC3)c2-c2ccnc(Oc3ccc4c(c3)OCO4)n2)cc1 ?
0.635

What value of measured z-score is listed for O=C1NC(=O)C(c2c[nH]c3ccccc23)=C1c1c[nH]c2ccccc12 ?
-0.485
